The measurements presented in this section are drawn from patent US20260234242A1.

Recorded Max OD450 for the following binders
- MEASURED_TARGET: T1, his-tagged human CDH6 extracellular region protein (hCDH6 ECD-his) (human, UniProt P55285 19-615)
- T1 construct: also called Human CDH6-his; hCDH6-his; not shown: his tag
- T1 sequence: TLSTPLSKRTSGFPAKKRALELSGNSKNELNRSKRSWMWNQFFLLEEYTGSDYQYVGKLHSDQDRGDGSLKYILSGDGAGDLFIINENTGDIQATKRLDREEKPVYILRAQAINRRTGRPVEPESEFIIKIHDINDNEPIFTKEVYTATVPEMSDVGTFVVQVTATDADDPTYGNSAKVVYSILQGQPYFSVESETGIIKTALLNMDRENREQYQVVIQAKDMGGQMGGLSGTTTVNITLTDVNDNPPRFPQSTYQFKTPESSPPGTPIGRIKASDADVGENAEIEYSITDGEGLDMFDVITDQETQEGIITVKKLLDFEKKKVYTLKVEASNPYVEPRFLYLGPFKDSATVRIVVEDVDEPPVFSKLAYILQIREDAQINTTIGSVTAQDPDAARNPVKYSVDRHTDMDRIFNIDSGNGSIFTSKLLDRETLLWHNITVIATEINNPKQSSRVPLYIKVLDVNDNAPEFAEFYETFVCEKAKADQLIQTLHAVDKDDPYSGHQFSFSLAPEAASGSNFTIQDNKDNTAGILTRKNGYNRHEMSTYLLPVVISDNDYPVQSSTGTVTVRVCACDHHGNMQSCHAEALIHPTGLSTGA
- EXPERIMENT: ELISA, coated antigen
Report only the number, with the unit OD450 understood.

hCDH6-1-H4L1 (antibody, V domains shown, Humanized) VH: EVQLVQSGAEVKKPGSSVKVSCKASGYTFTNYWMHWVRQRPGQGLEWMGDIDPSHSETHYTQKFKDRVTITVDKSTSTAYMELSSLRSEDTAVYYCARGDLGRFDYWGQGTTVTVSS VL: DIVMTQSPDSLAVSLGERATINCRASESVSIHGTHLMHWYQQKPGQPPKLLIYAASNLESGVPDRFSGSGSETDFTLTISSLQAEDVAVYYCQQSFEDPWTFGGGTKVEIK :: 2.62
CHI-CDH6-1 (antibody, human IgG1, kappa, V domains shown, also called CHI-hCDH6-1; CH1-CDH6-1) VH: QVQLQQPGAELVRPGSSVKLSCKASGYTFTNYWMHWVKQRPIEGLEWIGDIDPSHSETHYTQKFKDKATLTVDKSSSTAYMQLSSLTSEDSAVYYCARGDLGRFDYWGQGTTLTVSS VL: DIVLTQSPASLAVSLGQRATISCRASESVSIHGTHLMHWYQQKSGQPPKLLIYAASNLESGVPARFSGSGSETDFTFNIHPVEEEDAATYFCQQSFEDPWTFGGGTKLEIKR :: 2.59
hCDH6-14-H1L3 (antibody, V domains shown, Humanized) VH: EVQLVQSGAEVKKPGASVKVSCKASGYTFTDNYINWVRQAPGQRLEWMGWIYPGTGNSYYNEKFKGRVTITVDTSASTAYMELSSLRSEDTAVYYCASSYGDSFDYWGQGTTVTVSS VL: DIVMTQSPDSLAVSLGERATINCRASQDIRNYLNWYQQKPGQTPKLLISYTSRLHSGVPDRFSGSGSGTDFTLTISSLQAEDVAVYYCQQYSQLPWTFGGGTKVEIK :: 2.68
hCDH6-14-H6L3 (antibody, V domains shown, Humanized) VH: EVQLVQSGAEVKKPGASVKVSCKASGYTFTDNYINWVRQAPGQRLEWMGWIYPGTGNSYYNEKFKGRVTITVDTSASTAYMELSSLRSEDTAVYLCASSYGDSFDYWGQGTTVTVSS VL: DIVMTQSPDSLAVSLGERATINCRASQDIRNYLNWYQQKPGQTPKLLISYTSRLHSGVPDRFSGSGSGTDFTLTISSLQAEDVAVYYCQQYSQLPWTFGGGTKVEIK :: 2.72

Switching to the query record.
Prompt: Looking for the measured Max OD450 of hCDH6-14-H2L1 (antibody, V domains shown, Humanized) VH: EIQLVQSGAEVKKPGASVKVSCKASGYTFTDNYINWVRQAPGQRLEWMGWIYPGTGNSYYNEKFKGRVTITVDTSASTAYMELSSLRSEDTAVYYCASSYGDSFDYWGQGTTVTVSS VL: DIQMTQSPSSLSASVGDRVTITCRASQDIRNYLNWYQQKPGKAFKLLISYTSRLHSGVPSRFSGSGSGTDFTFTISSLQPEDIATYYCQQYSQLPWTFGGGTKVEIK , can you help?
Response: 2.65
